The compounds listed here are annotated with their normalized growth.
- procedureText: chemical genetic growth profiling, strain panel (AID 1159580);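 further: tested at 20 µM; growth read once vehicle control cultures reached saturation at 30 °C; 1 = growth at the plate median or of vehicle wells; lower values mean less growth of the strain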
- testContext: S. cerevisiae deletion strains, growth OD, locus YDR162C, strain NBP2, active compounds read low
In all, about 5,500 compounds went through this assay and about 2,000 (36%) were called active. Not shown: some 18% with an inconclusive outcome. This is one part of the list.

compound	normalized growth
CC1CC2C3CC(F)C4=CC(=O)C=CC4(C)C3(F)C(O)CC2(C)C1(O)C(=O)CO (configuration not stated)	1.02 (inactive)
CCOC(=O)C(=O)C1(C(=O)OCC)Oc2cc(OC)cc(OC)c2C(=O)C1c1ccccc1 (configuration not stated)	0.987 (inactive)
c1ccc(N=Nc2ccccc2)cc1	1.01 (inactive)
CC(N)C(=O)OC(C)(C)Cc1ccc(Cl)cc1 (configuration not stated)	0.985 (inactive)
CCOC(=O)C(C)(C)Oc1ccc(Cl)cc1	1.01 (inactive)
c1cncc(C2CCCCN2)c1 (configuration not stated)	1 (inactive)
CCOC(=O)C(Cc1ccc(O)cc1)NC(C)=O (configuration not stated)	1.02 (inactive)
COc1ccc2c(c1)O[C@@H]1COc3cc(OC)c(OC)cc3[C@@H]1C2=O	0.752 (active)
COc1cc2c(cc1OC)C1C(=O)c3ccc4c(c3OC1CO2)CCC(C)(C)O4 (configuration not stated)	1.03 (inactive)
C[C@@H]1[C@H]2[C@H](O[C@@H]3O[C@H](CO)[C@@H](O)[C@H](O)[C@H]3O)OC=C(C(=O)O)[C@H]2C[C@@H]1O	0.963 (inactive)
NCCSSCCN	1.01 (inactive)
CC(C)OC(=O)C(C)(C)Oc1ccc(C(=O)c2ccc(Cl)cc2)cc1	0.671 (active)
CC1=C(/C=C/C(C)=C/C=C/C(C)=C/C=C/C=C(C)/C=C/C=C(C)/C=C/C23OC2(C)CC(O)CC3(C)C)C(C)(C)CC(O)C1 (configuration not stated)	0.997 (inactive)
CCN(CC)CCNC(=O)c1cc(Br)c(N)cc1OC	1 (inactive)
C[N+](C)(C)CCOC(N)=O	1.03 (inactive)
CC(=O)N[C@@H](CC(C)C)C(=O)O	0.981 (inactive)
CCS(=O)CCSP(=O)(OC)OC (configuration not stated)	1.03 (inactive)
COC1=CC(=O)C[C@@H](C)[C@]12Oc1c(Cl)c(OC)cc(OC)c1C2=O	0.932 (inactive)
CCCCCCCCCCCCCCCC[N+](C)(C)C	0.0544 (active)
C=C(C)[C@@H]1[C@H]2OC(=O)[C@@H]1[C@]1(O)C[C@H]3O[C@]34C(=O)O[C@H]2[C@]14C	0.987 (inactive)
CC(=O)OC(C)(C)[C@@H]1Cc2cc3ccc(=O)oc3cc2O1	1 (inactive)
COc1cc2c(cc1OC)C(=O)OC2	0.985 (inactive)
O=C1C=CC(=C(c2ccc(O)cc2)c2ccc(O)cc2)C=C1	1.01 (inactive)
C=C1C([C@]2(C)C(CC(=O)OC)[C@@](C)(COC(C)=O)OC(=O)C[C@@H]2OC(C)=O)[C@@H](OC=O)[C@H](OC(=O)C(OC(C)=O)C(C)CC)[C@@]2(C)[C@H](c3ccoc3)CC(=O)C12O (some centres not stated)	1.02 (inactive)
CC(C)(O)[C@@H]1[C@H]2OC(=O)[C@@H]1[C@]1(O)C[C@H]3O[C@]34C(=O)O[C@H]2[C@]14C	1.01 (inactive)
CCC(C)C(OC(C)=O)C(=O)OC1C(O)C2C3(C)C=CC(=O)C(C)(C)C3CC(OC(=O)C(O)C(C)C)C2(C)C23OC2CC(c2ccoc2)C13C (configuration not stated)	1.02 (inactive)
COc1cc2c(cc1OC)C1C(=O)c3c(cc4c(c3O)C=CC(C)(C)O4)OC1CO2 (configuration not stated)	1.03 (inactive)
